# Tested on: HOP-62 NSCLC
# measurement.notes: NCI-60 one-dose screen, 48 h (100 = growth as untreated, 0 = no growth, -100 = all killed)
# details: 10 µM
About 83,000 compounds went through this panel and 20% of them were active in at least one assay; those are over-represented in the sample as a whole.
Form field: growth (one value per entry).

# compound, growth (%)
records = [
    ("COc1cc2c(cc1OCCCCCCN1CCN(CC(=O)Nc3ccc(Cl)cc3C(=O)c3ccccc3Cl)CC1)N=CC1CCCN1C2=O (centres undefined)", -77.9),
    ("c1ccc([I+]c2ccccc2)cc1", 53.3),
    ("O=C1/C(=C\\c2ccc(F)cc2)CN(C(=O)c2ccc([N+](=O)[O-])cc2)C/C1=C\\c1ccc(F)cc1", 32.9),
    ("Cc1ccc(NC(=O)Nc2cccnc2)cc1NC(=O)Nc1cccnc1", 117),
]

* * *

# Test system: EKVX NSCLC
# measurement.notes: NCI-60 one-dose screen, 48 h (100 = growth as untreated, 0 = no growth, -100 = all killed)
# details: 10 µM
This is part of a sample that, as a whole, favours compounds with a hit. Of some 83,000 tested, about 20% had one in any assay.

# molecule, unit.string, growth
data = [
    ("O=C1/C(=C\\c2cn(C(=O)c3ccc(Cl)cc3)c3ccccc23)c2ccccc2N1C(=O)c1ccc(Cl)cc1", "%", 70.7),
    ("COc1ccc(-c2cc(-c3cccc(NS(C)(=O)=O)c3)nc(N)c2C#N)cc1", "%", 22),
    ("COc1ccc(-c2ccc3cc(C(=O)Nc4ccc(O)c(C(=O)/C=C/c5cc(OC)c(OC)c(OC)c5)c4)ccc3c2)cc1", "%", 101),
    ("COc1cc(-c2nnc(-c3c(-c4ccc(F)cc4)nc4ccccn34)o2)cc(OC)c1OC", "%", 97),
    ("O=C(/C=C/c1cc2ccccc2[nH]c1=O)c1ccc2c(c1)OCO2", "%", 95.9),
    ("CCOC(=O)C(=Cc1ccc(Br)cc1)C(=O)OCC", "%", 50.5),
    ("N=c1c2c(-c3ccccc3)c(-c3ccccc3)n(Cc3ccccc3)c2ncn1CCCO", "%", 36.5),
    ("CCN(CC)CCC(CNc1c(C)cnc2cc(Cl)ccc12)c1ccc(Cl)c(Cl)c1 (stereo not drawn)", "%", 73.5),
]

* * *

# Test system: 786-0 renal
# measurement.notes: NCI-60 one-dose screen, 48 h
# details: 10 µM
About 83,000 compounds went through this panel and 20% of them were active in at least one assay; those are over-represented in the sample as a whole. Calls of active or inactive are those of the source. Rule for the calls: active = growth percent below 10; inactive = the rest.
Classes used: 1 for active, -1 for inactive

# compound, group
measured = [
    ("COc1cc(-c2cc(/C=C/C(=O)c3ccc4c(c3)OCO4)[nH]n2)cc(OC)c1OC", -1),
    ("FC(F)(F)c1ccc2nc(-c3nc(-c4ccccc4)n4ccccc34)[nH]c2c1", -1),
    ("CCCCCCCCCCCC[n+]1ccc(C(N)=O)cc1", -1),
    ("O=C(O)CC(Cl)C(Cl)CC(=O)O (stereo unspecified)", -1),
    ("N#Cc1c(C#N)c(SSc2c(C#N)c(C#N)c(N)n2-c2ccccc2)n(-c2ccccc2)c1N", -1),
    ("CCC(=O)N1C/C(=C/c2ccc(OC)cc2)C(=O)/C(=C/c2ccc(OC)cc2)C1", 1),
]

* * *

# Tested on: IGROV1 ovarian
# measurement.notes: NCI-60 one-dose screen, 48 h
# details: 10 µM
Compounds without any hit were thinned out: in the full panel of roughly 83,000, 20% have a hit. Activity calls are given as the source filed them. Rule for the calls: active = growth percent below 10; inactive = the rest.
Possible outcomes: T for active, F for inactive

# compound, tgt, group
data = [
    ("COc1cccc(-c2cc(-c3cccc(NS(C)(=O)=O)c3)nc(N)c2C#N)c1O", "IGROV1 ovarian", "F"),
    ("O=[N+]([O-])c1cccc(N=Cc2ccc3c(c2)OCO3)c1", "IGROV1 ovarian", "F"),
    ("CCc1ccc2c(c1)N(CCO)C1=C(C(=O)OC1)C2c1cc(OC)c(OC)c(OC)c1 (configuration not stated)", "IGROV1 ovarian", "F"),
    ("COc1cccc(C2C3=C(COC3=O)N(CCO)c3cc(OC)ccc32)c1 (configuration not stated)", "IGROV1 ovarian", "F"),
    ("CCCN(CCC)CCC(O)c1cc2c(c3ccccc13)CCCC2 (configuration not stated)", "IGROV1 ovarian", "F"),
    ("O=C1/C(=C\\c2ccc(F)cc2)CN(C(=O)c2ccc([N+](=O)[O-])cc2)C/C1=C\\c1ccc(F)cc1", "IGROV1 ovarian", "F"),
    ("Oc1[nH]c2ccc(Cl)cc2c1/C=c1/ccc2c(c1)N=C(c1cc(F)cc(F)c1)N=2", "IGROV1 ovarian", "F"),
    ("COc1ccccc1CNCCN1C(=O)c2ccc3c4c(ccc(c24)C1=O)C(=O)N(CCNCc1ccccc1OC)C3=O", "IGROV1 ovarian", "T"),
    ("FC(F)(F)c1ccc2nc(-c3nc(-c4ccccc4)n4ccccc34)[nH]c2c1", "IGROV1 ovarian", "F"),
    ("CCN1CCC(CCOC)(CN2c3ccccc3Sc3ccc(Cl)cc32)C1 (configuration not stated)", "IGROV1 ovarian", "F"),
    ("COc1ccc(Nc2cc(C)nc(NCCCNc3ccnc4cc(Cl)ccc34)n2)cc1", "IGROV1 ovarian", "F"),
    ("Cc1cccc(C)c1NC(=O)c1sc2nc3c(cc2c1N)C(=O)CCC3", "IGROV1 ovarian", "F"),
    ("COc1ccc(-c2nn(-c3cccc(NC(=O)c4cc(C(F)(F)F)cc(C(F)(F)F)c4)c3)cc2-c2ccncc2)cc1Cl", "IGROV1 ovarian", "F"),
    ("CN(C)N=Nc1nn(C(=O)Nc2ccc(Cc3ccccc3)cc2)c2ccccc12", "IGROV1 ovarian", "F"),
    ("CC1(C)CCC(=NNC(N)=S)CC1", "IGROV1 ovarian", "F"),
    ("COc1cc(NC(=O)CCSc2nc3ccc(C)cc3c(=O)n2Cc2ccccc2)cc(OC)c1OC", "IGROV1 ovarian", "F"),
    ("COc1cc2cc3c(nc2cc1OC)CCN3Cc1ccc(NC(=O)Nc2cc(C(F)(F)F)cc(C(F)(F)F)c2)cc1", "IGROV1 ovarian", "F"),
    ("COc1cc2nc(Nc3cccc(NC(C)=O)c3)nc(N)c2cc1OC", "IGROV1 ovarian", "F"),
    ("Cc1cc(Nc2ccc(Cl)cc2)nc(NCCCNc2ccnc3cc(Cl)ccc23)n1", "IGROV1 ovarian", "T"),
    ("CN(C)Cc1cn(-c2ncc(-c3ccc(C(F)(F)F)cc3)c(NC3CCCCCC3)n2)nn1", "IGROV1 ovarian", "F"),
    ("COc1cc(/C(=C2/O[C@@H]([C@H]3COC(C)(C)O3)[C@H]3OC(C)(C)O[C@@H]23)c2ccc3ccccc3c2)cc(OC)c1OC", "IGROV1 ovarian", "F"),
    ("COc1ccc(Nc2ncnc3c2c(SC)nn3-c2ccccc2)cc1", "IGROV1 ovarian", "F"),
    ("O=C(Nc1ccc(Cl)c(Cl)c1)Nc1c(Oc2ccc(Cl)c(Cl)c2)ccc(Cl)c1S(=O)(=O)O", "IGROV1 ovarian", "F"),
    ("COc1ccc(Cl)cc1C(=O)Nc1nc2ccc(Cl)cc2s1", "IGROV1 ovarian", "F"),
    ("COc1ccc(Oc2nc(NC3CCCC3)nc(Sc3ccc(OC)cc3)n2)cc1", "IGROV1 ovarian", "F"),
    ("OCC1OC(n2cnc3c(N/N=C\\c4ccccn4)ncnc32)C(O)C1O (configuration not stated)", "IGROV1 ovarian", "T"),
    ("O=C(N/N=C/c1ccccc1O)C(O)(c1ccccc1)c1ccccc1", "IGROV1 ovarian", "F"),
    ("C=C(Cl)[C@@](Cl)(CBr)CC[C@@H](Br)C(C)(C)Cl", "IGROV1 ovarian", "F"),
    ("Clc1ccc2c(NCCCNc3nccc(Nc4ccc(Br)cc4)n3)ccnc2c1", "IGROV1 ovarian", "F"),
    ("COc1ccccc1CNCCCN1C(=O)c2ccc3c4c(ccc(c24)C1=O)C(=O)N(CCCN)C3=O", "IGROV1 ovarian", "T"),
    ("CCOC(=O)N1C/C(=C/c2ccc(OC)cc2)C(=O)/C(=C/c2ccc(OC)cc2)C1", "IGROV1 ovarian", "F"),
    ("CNc1ccc(CSc2ccc(C)cc2)cc1", "IGROV1 ovarian", "F"),
    ("O=[P@@]1(c2ccccc2)O[C@H](COCc2ccccc2)[C@@H](OCc2ccccc2)[C@H](OCc2ccccc2)[C@H]1O", "IGROV1 ovarian", "F"),
    ("c1ccc(CNc2ncnc3scc(-c4cccs4)c23)nc1", "IGROV1 ovarian", "F"),
    ("COc1ccc2nc3ccccc3c(NCCNCC(C)O)c2c1 (configuration not stated)", "IGROV1 ovarian", "T"),
    ("N=C(N)c1ccc(-c2ccc(-c3ccco3)o2)cc1", "IGROV1 ovarian", "F"),
    ("CSCCCNC(=O)c1ccc2c(c1)/C(=C/c1[nH]c(C)cc1C)C(=O)N2", "IGROV1 ovarian", "T"),
]

Data origin: PubChem BioAssay (NCI)
